Data provenance is the supplement of paper PMC13380429.

- System: HepG2
- assay-method-text: cell viability relative to DMSO; higher = less toxic
- condition-info: 72 h; 10000 nM
# Lookup of reported cell viability keyed by entry
Give the number; % is assumed, so skip it.

Recorded results for 5 compounds are shown here.
- compound: "COc1cc(OC)cc(-c2ccc3c(-c4ccc(F)cc4)n[nH]c3n2)c1"
  value-unit: "%"
  cell viability: 107
- compound: "CC(C)(Oc1ccc(C2CC2(Cl)Cl)cc1)C(=O)O (stereo not drawn) [ciprofibrate]"
  value-unit: "%"
  cell viability: 100
- compound: "CC(C)(C)NCC(O)COc1cccc2c1CCC(=O)N2 (stereo not drawn)"
  value-unit: "%"
  cell viability: 105
- compound: "CNC(=O)c1ccccc1Nc1nc(Nc2ccc(N3CCOCC3)cc2OC)ncc1Cl"
  value-unit: "%"
  cell viability: 20.8
- compound: "CC(C)(C)c1[nH]cnc1/C=c1\\[nH]c(=O)/c(=C/c2ccccc2)[nH]c1=O"
  value-unit: "%"
  cell viability: 30.9

Req: Hello, I am looking for reported cell viability with HepG2 for `COC(=O)/C=C/C(=O)N[C@@H]1CC[C@@]2(O)[C@H]3Cc4ccc(O)c5c4[C@@]2(CCN3CC2CC2)[C@H]1O5` . Could you help?
Resp: 89.2
